Tested on: 786-0 renal
Experiment: NCI-60 one-dose screen, 48 h (100 = growth as untreated, 0 = no growth, -100 = all killed)
Settings: 10 µM unless noted
Experimental: Cells are grown in 96 well plates and exposed to the test compound for 48 hours. Compounds are tested at a single concentration, which is 10^-5 M for most compounds. The reported endpoint is percent growth (GI% or GIPRCNT), where numbers from 0 - 100% represent growth inhibition, and numbers from -100% - 0 represent cell death. For example, a value of 40 represents 60% growth inhibition. A value of 0 means no net growth occurred over the course of the experiment. […]
Compounds without any hit were thinned out: in the full panel of roughly 83,000, 20% have a hit.
Result type: growth (%)
Answers are plain numbers, in %.

// solved cases for growth follow
- O=C(/C=C\c1ccc(OCCCCCC[P+](c2ccccc2)(c2ccccc2)c2ccccc2)cc1)c1ccc2c(c1)OCCO2: 5.76
- CCCCCCC/C=C/[C@H]1O[C@]2(O)C(=O)C=C3C[C@@H](O[C@@H]4O[C@H](CO)[C@@H](O)C(O)[C@@H]4O)C[C@@H]3[C@H]2C=C1C (stereo not given in full): -52.4
- CN1CCN(c2cnc(C(=O)Nc3cc(F)cc4cccnc34)cn2)CC1: 56
- CC(=O)NCCCS(=O)(=O)O: 99.6
- O=c1[nH]c2c(s1)CCCC2CN1CCCCC1 (stereo not given): 96.2

// input: 4 compounds below; output: growth for each
1. C=C(C)[C@H]1CC/C(C)=C/CC[C@]2(C)O[C@H]2CC/C(COC(=O)[C@@H](OC(C)=O)[C@H](NC(=O)c2ccccc2)c2ccccc2)=C\[C@@H]1O
2. O=C(CN1CCOCC1)Nc1ccc2ncnc(Nc3ccc(Oc4cccc(F)c4)c(Cl)c3)c2c1
3. Fc1ccccc1CSc1ncnc2nc[nH]c12
4. COc1ccc(C(=O)c2cc3c(N)c(C(=O)Nc4cccc(Cl)c4C)sc3nc2C)cc1

1: 85.1; 2: 74.3; 3: 106; 4: 29

// input: 2 compounds below; output: growth for each
1. CCN(CC)CCSCCCNc1c(C)cnc2cc(Cl)ccc12
2. O=C(O)C(/C=C/c1ccco1)=N\Nc1nc(-c2ccc(Cl)cc2)cs1

82.7
51.8

// input: 2 compounds below; output: growth for each
1. CC(Oc1ccc(C(=O)NS(=O)(=O)C(C)(C)C)cc1C(F)(F)F)c1ccc(Oc2ccccc2)cn1 (stereo not given)
2. Cc1[nH]n(-c2cccc(Cl)c2)c(=O)c1/C=C1\C=Nc2ccc(Br)cc21

77.7
-4.37

// input: 8 compounds below; output: growth for each
1. CN(C)C(C(N)=O)c1ccc(Cl)cc1 (stereo not given)
2. CC(=O)N1N=C(c2cccc(Nc3ccncc3)c2)CC1c1ccc2c(c1)OCO2 (stereo not given)
3. O=C(OCc1nc2nc(Cl)nc(N3CCOCC3)c2[nH]1)n1ccnc1
4. O=C(Nc1ccc(F)cc1)c1c(NC(=O)C(F)(F)F)sc2c1CCCCC2
5. CC(N)C(=O)NNc1n[nH]c(=S)n1N (stereo not given)
6. O=C(Cc1ccc(/C=C/C(=O)c2ncc[nH]2)cc1)Nc1ccc(C(F)(F)F)cc1
7. C(=N\Nc1ncc(-c2cc3cc4c(cc3o2)OCO4)s1)/c1c[nH]c2ccccc12
8. O=C(Nc1ccc2cc3ccc(NC(=O)NC4CCCCC4)cc3nc2c1)NC1CCCCC1

96.1
-93.4
-81.4
-10.4
95.8
-43.1
-40
60.1

// input: 4 compounds below; output: growth for each
1. NC(=O)c1cccc(-c2cc(C(N)=O)ccc2Cl)c1
2. COC(=O)CCCCCCCCC1(C)C=CC(C(C)O)=CC1 (stereo not given)
3. N#Cc1c(NC(=O)c2cccc(Br)c2)sc2c1CCCC2
4. CC(=O)c1cc2c(N)c(C(=O)Nc3cncc4ccccc34)sc2nc1C

1. 48.7
2. 108
3. 82.6
4. 98.4
